Please find below pIC50 measurements for MERTK (Homo sapiens), combined from several publications.
pIC50: −log10 of the molar value.

Sample records with pIC50:
| molecule | result |
| --- | --- |
| CCC[C@@H](C)Nc1ncc2c(=O)n(C3CCNCC3)cc([C@H]3CC[C@H](O)CC3)c2n1 | ≥ 7.00 |
| COc1cc(-c2n[nH]c3ncc(-c4ccc5c(c4)CCC(C)(N4CCC[C@H]4C)CC5)cc23)ccc1S(N)(=O)=O (stereo partly shown) | 6.00 to 7.00 |
| Cn1cc(-c2cnc(N)c(C(=O)N[C@H]3CCN(C(=O)Nc4ccccc4)C3)c2)cn1 | < 6.00 |

# evaluate next
(Q) Given the molecule "Cc1nccn1CCNc1ncc2c(OC3CCNCC3)ncc([C@H]3CC[C@H](O)CC3)c2n1" , what is its reported pIC50?
(A) 5.00 to 6.00

* * *

pIC50: −log10 of the molar value.
# pIC50 against MERTK (Homo sapiens), merged from multiple literature sources

| compound | pIC50 |
| --- | --- |
| NC(=O)c1ccc(-c2n[nH]c3ncc(-c4ccc5c(c4)CCC(N4CCCC4)CC5)cc23)cc1 (stereo not shown) | 6.00 to 7.00 |
| Cn1cc(-c2cnc(N)c(C(=O)N[C@@H]3CCN(C(=O)c4ccc(-c5ccc(CN6CCOCC6)cc5)cc4)C3)c2)cn1 | < 6.00 |
| O=C(Nc1ccc(Oc2ncnc3cc(OCCCN4CCOCC4)c4c(c23)OCCO4)c(F)c1)c1cccn(-c2ccc(F)cc2)c1=O | ≥ 7.30 |

(Q) Form field: reported pIC50 of "COC[C@H](C)Nc1ncc2c(C#N)cc([C@H]3CC[C@H](O)CC3)n2n1"
(A) ≥ 7.00

(Q) Query "Cn1cc(-c2cnc(N)c(C(=O)N[C@@H]3CCN(C(=O)c4cccc5c(Br)cccc45)C3)c2)cn1" next
(A) < 6.00

(Q) Please answer likewise for "Cn1cc(-c2cnc(N)c(C(=O)N[C@@H]3CCN(C(=O)Nc4ccc(Br)cc4)C3)c2)cn1"
(A) < 6.00

(Q) Repeat for the following compound: "O=C(O)c1ccc(Nc2ncc3c(OC4CCNCC4)ncc([C@H]4CC[C@H](O)CC4)c3n2)cc1"
(A) ≥ 7.00

* * *

Across several publications, the following IC50 results were reported for MERTK (Homo sapiens, UniProt Q12866).

Reference set, count: 10
| compound | IC50 |
| --- | --- |
| COCCOc1cc2nccc(Oc3ccc(NC(=O)c4cn(C)c(=O)n(-c5ccc(F)cc5)c4=O)cc3F)c2c2c1OCCO2 | ≤ 50 nM |
| CC[C@H](C)Nc1ncc2c(OCC(F)(F)F)ncc([C@H]3CC[C@H](O)CC3)c2n1 | ≤ 100 nM |
| CNS(=O)(=O)N[C@H]1CC[C@H](c2cnc(OC3CCOCC3)c3cnc(N[C@@H](C)COC)nc32)CC1 | ≤ 100 nM |
| CC(C)Nc1ncc2c(OC3CCNCC3)ncc([C@H]3CC[C@H](O)CC3)c2n1 | ≤ 100 nM |
| COC[C@H](C)Nc1ncc2c(-c3ccnc(C)c3)cc(C3CCC4(CC3)NC(=O)NC4=O)n2n1 (mixture of isomers) | ≤ 100 nM |
| CCC1(N2CCC[C@H]2CO)CCc2ccc(-c3cnc4[nH]nc(-c5ccc(C(N)=O)c(Cl)c5)c4c3)cc2CC1 (some centres unmarked) | < 100 nM |
| CN1CCN(C(=O)Cc2cccc(-c3cccc(C(=O)N4CC[C@@H](NC(=O)c5cc(-c6cnn(C)c6)cnc5N)C4)c3)c2)CC1 | > 1000 nM |
| COc1cc2ncnc(Oc3ccc(NC(=O)c4c(OC)ccn(-c5ccc(F)cc5)c4=O)cc3F)c2c2c1OCCO2 | ≤ 50 nM |
| CC[C@H](C)Nc1ncc2c(OCC34CCC(N)(CC3)CC4)ncc([C@H]3CC[C@H](O)CC3)c2n1 | ≤ 100 nM |
| CNC(=O)c1ncc(-c2cc([C@H]3CC[C@H](O)CC3)n3nc(N[C@@H](C)COC(F)F)ncc23)cn1 | ≤ 100 nM |

(Q) Sample "COc1ccn(-c2ccc(F)cc2)c(=O)c1C(=O)Nc1ccc(Oc2ccnc3cc(OCCCN4CCOCC4)c4c(c23)OCCO4)c(F)c1" — what was its IC50?
(A) ≤ 50 nM

(Q) And the next one, "Cc1cc(-c2n[nH]c3ncc(-c4ccc5c(c4)CC[C@@H](N4CCCC4)CC5)cc23)cc(Cl)c1C(=O)N1CCNCC1" ?
(A) < 100 nM

(Q) Here is the next compound: "Cn1cc(-c2cnc(N)c(C(=O)N[C@@H]3CCN(c4ncc5ccccc5n4)C3)c2)cn1"
(A) > 1000 nM

(Q) Also CCCC(C)Nc1ncc2c(OC3CCOCC3)ncc([C@H]3CC[C@H](O)CC3)c2n1 (some centres unmarked) , if possible.
(A) ≤ 100 nM

* * *

What follows is literature data on pIC50 for MERTK (Homo sapiens).
pIC50: −log10 of the molar value.

Recorded pIC50, per entry:
| compound | experimental_target | pIC50 |
| --- | --- | --- |
| CC(C)n1cc(-c2ccc(F)cc2)c(=O)c(C(=O)Nc2ccc(Oc3ccnc(N)c3Cl)nc2)n1 | MERTK (Homo sapiens) | 8.10 |
| CCCCNc1ncc2c(=O)n(Cc3ccc(F)cc3)cc([C@H]3CC[C@H](O)CC3)c2n1 | MERTK (Homo sapiens) | ≥ 7.00 |
| COCCn1cc(-c2cc([C@H]3CC[C@H](O)CC3)n3nc(N[C@@H](C)COC(F)F)ncc23)cn1 | MERTK (Homo sapiens) | ≥ 7.00 |
| CCCCNc1ncc2c(OCCOC)ncc([C@H]3CC[C@H](O)CC3)c2n1 | MERTK (Homo sapiens) | ≥ 7.00 |
| COC[C@H](C)Nc1ncc2c(OC3CCOCC3)ncc(C3CCCCN3C)c2n1 (stereo partly shown) | MERTK (Homo sapiens) | 6.00 to 7.00 |
| CN1CCC(N(Cc2ccccc2)c2ccc3cc(C(=O)N4CC[C@@H](NC(=O)c5cc(-c6cnn(C)c6)cnc5N)C4)ccc3c2)CC1 | MERTK (Homo sapiens) | 6.00 to 7.00 |

(Q) What pIC50 value was documented for this compound, CCOC(=O)C1CN(C(=O)c2cccc(-c3ccccc3)c2)CC1NC(=O)c1cc(-c2cnn(C)c2)cnc1N (stereo not shown) ?
(A) < 6.00

* * *

Reported IC50 on MERTK (Homo sapiens, UniProt Q12866) for assorted molecules, compiled from publications.

| molecule | experimental_target | result |
| --- | --- | --- |
| COc1cc2nccc(Oc3ccc(NC(=O)c4cc(S(C)(=O)=O)n(-c5ccc(F)cc5)n4)c(F)c3)c2cc1OC | MERTK (Homo sapiens, UniProt Q12866) | < 500 nM |
| Cn1cc(-c2cnc(N)c(C(=O)N[C@@H]3CCN(C(=O)c4c[nH]c(=O)n(-c5ccc(F)cc5)c4=O)C3)c2)cn1 | MERTK (Homo sapiens, UniProt Q12866) | > 1000 nM |
| Cn1cc(-c2cnc(N)c(C(=O)N[C@@H]3CCN(C(=O)c4ccc(-c5ccc(C(=O)N6CCNCC6)cc5)cc4)C3)c2)cn1 | MERTK (Homo sapiens, UniProt Q12866) | > 1000 nM |

(Q) Quick check: IC50 of "Cn1cc(-c2cnc(N)c(C(=O)N[C@@H]3CCN(C(=O)c4ccc(-c5ccc(Cl)c(Cl)c5)cc4)C3)c2)cn1" ?
(A) 100 to 1000 nM

(Q) Next record, please: "Cn1cc(-c2cnc(N)c(C(=O)N[C@@H]3CCN(C(=O)N4CCc5c(N)cccc5C4)C3)c2)cn1"
(A) > 1000 nM

(Q) Item: "Cn1cc(-c2cnc(N)c(C(=O)N[C@@H]3CCN(C(=O)c4cccc(-c5ccccc5)c4)C3)c2)cn1"
(A) > 1000 nM

(Q) Entry to check: "Cn1cc(-c2cnc(N)c(C(=O)N[C@@H]3CCN(C(=O)c4ccc(-c5cccc(F)c5Cl)cc4)C3)c2)cn1"
(A) 10 to 100 nM

(Q) Also C[C@@H]1CCCN1C1CCc2ccc(-c3cnc4[nH]nc(-c5ccc(S(=O)(=O)C6CC6)cc5)c4c3)cc2C(C)(C)C1 (stereo partly shown) , if possible.
(A) > 1000 nM

(Q) Another molecule to look at: "CCOc1ccn(-c2ccc(C)cc2)c(=O)c1C(=O)Nc1ccc(Oc2ccnc3cc(OC)c4c(c23)OCCO4)c(F)c1"
(A) ≤ 50 nM

(Q) Then this molecule: "CN1CCN(Cc2ccc(-c3ccc(/C=C/C(=O)N4CC[C@@H](NC(=O)c5cc(-c6cnn(C)c6)cnc5N)C4)cc3)cc2)CC1"
(A) > 1000 nM

(Q) Now try "Nc1ncc(-c2cnn(C3CCOCC3)c2)cc1-c1ncc(-c2ccc(Cl)cc2)o1" .
(A) > 10000 nM

(Q) Another: "O[C@H]1CC[C@H](c2cnc(OC3CCNCC3)c3cnc(Nc4ccc(Cl)cc4)nc32)CC1"
(A) ≤ 100 nM

(Q) "Cn1cc(-c2cnc(N)c(C(=O)N[C@@H]3CCN(C(=O)Oc4ccc5ccc(OCC6CCNCC6)cc5c4)C3)c2)cn1" ?
(A) 100 to 1000 nM

(Q) Also, "COC[C@H](C)Nc1ncc2c(-c3ccnc(O[C@H]4CCCN(C)C4)c3)cc([C@H]3CC[C@H](O)CC3)n2n1" please.
(A) ≤ 100 nM

(Q) // repeat for "Cn1cc(-c2cnc(N)c(C(=O)N[C@@H]3CCN(C(=O)c4ccc(-c5ccccc5Br)cc4)C3)c2)cn1" and report
(A) 10 to 100 nM

(Q) How about this molecule: COC[C@H](C)Nc1ncc2c(-c3cnn(CC4CCO4)c3)cc([C@H]3CC[C@H](O)CC3)n2n1 (stereo partly shown)
(A) ≤ 100 nM

(Q) Okay, and "CN1CCN(Cc2ccc(-c3cccc4c(C(=O)N5CC[C@@H](NC(=O)c6cc(-c7cnn(C)c7)cnc6N)C5)cccc34)cc2)CC1" ?
(A) > 1000 nM
